Experiment: in vivo
Conditions: mouse, ip
Below is a list of entries, each paired with its recorded TD50 value.

1. CCCC(CCC)C(=O)[O-].[Na+] [Sodium Valproate, Sodium valproate, reference compound] :: 470 mg/kg
2. O=C(CCc1ccccc1)NNC(=O)CSc1nc2ccc(Cl)cc2c(=O)n1Cc1ccccc1 :: 136 mg/kg
3. CC(=O)NNC(=O)CSc1nc2ccc(Cl)cc2c(=O)n1Cc1ccccc1 :: 215 mg/kg
4. CCC(=O)NNC(=O)CSc1nc2ccc(Cl)cc2c(=O)n1-c1ccccc1 :: 100 mg/kg
5. CCC(=O)NNC(=O)CSc1nc2cc(OC)c(OC)cc2c(=O)n1Cc1ccccc1 :: 134 mg/kg

Now let's try a different one.
Query :: If you can, please state the reported TD50 value of COc1cc2nc(SCC(=O)NN)n(Cc3ccccc3)c(=O)c2cc1OC .
Result :: 149 mg/kg
